Target: SARS-CoV-2 S2 protein (SARS-CoV-2 (WT), UniProt P0DTC2 686-1213)
Assay: streptavidin bead fluorescence binding
Conditions: protein: commercial; tags: His; hairpin
READOUT: Kd (nM)
Give your result in nM as a bare value.

Record AGGCGGGTTCCTAGACTTGTACTCAGCCT (ssDNA) [S2A2C1] . Reported Kd: 35
